System: SK-MEL-2
testDetails: NCI tumour cell line growth inhibition, 48 h
Activity calls are given as the source filed them. Cut-off read from the data, not from the text of the source: active = GI50 up to about 1.1 µM and inactive = higher. Starred links: 1 amine or outer side, 2 acyl side, 3 side chain; linkers in the order of their positions; H or OH if unused. Positions of bridges follow the written chain, without caps; N, C: chain ends. Non-standard residues stand in square brackets, D forms with d. Residues, ends and D or L forms follow the SMILES beside them. ξ: configuration not given here. X37 = CC[C@H](C)[C@@H](N[*:1])[C@@H](O)CC(=O)O[C@H](C(=O)[C@H](C)C(=O)[*:2])C(C)C; NMeY = CN[C@@H](Cc1ccc(O)cc1)C(=O)O; dNMeL = CN[C@H](CC(C)C)C(=O)O; ξΔPro = O=C(O)C1C=CCN1
Choose one outcome from this list and give only that: 1.0 (active), 0.0 (inactive)

Inquiry: Per the assay record, what outcome was assigned to CC[C@H](C)[C@H]1NC(=O)[C@@H](NC(=O)[C@@H](CC(C)C)N(C)C(=O)C2C=CCN2)[C@@H](C)OC(=O)[C@H](Cc2ccc(OC)cc2)N(C)C(=O)[C@@H]2CCCN2C(=O)[C@H](CC(C)C)NC(=O)[C@@H](C)C(=O)[C@H](C(C)C)OC(=O)C[C@@H]1O (some centres not stated) (H-[ξΔPro][dNMeL]T[X37]LP[NMeY](Me); ester 3-C) ?
Reply text: 1.0

Inquiry: What would you report for O=C(/C=C/c1ccc(O)c(O)c1)NC(CO)C(=O)O (configuration not stated) ?
Reply text: 0.0

Inquiry: What would you report for O=C(Nc1ccc(F)cc1)C(=O)C(C1OC(=O)c2ccccc21)[N+](=O)[O-] (configuration not stated) ?
Reply text: 0.0

Inquiry: What would you report for O=C(C(=O)N1CCc2ccccc21)c1c[nH]c2ccccc12 ?
Reply text: 0.0

Inquiry: What would you report for COc1ccccc1N(CN1C(=O)CCC1C(=O)O)C(C)=O (configuration not stated) ?
Reply text: 0.0

Inquiry: What would you report for CC1(C)O[C@H]2OC(CO)C(OS(C)(=O)=O)[C@H]2O1 (some centres not stated) ?
Reply text: 0.0

Inquiry: What would you report for CCCC(=O)Nc1cc(/C=C/C(=O)N2CC(CCl)c3c2cc([N+](=O)[O-])c2ccccc32)n(C)c1 (configuration not stated) ?
Reply text: 0.0

Inquiry: What would you report for COc1cccc(N2C(=O)C3c4[nH]c5ccccc5c4C4c5ccccc5CCC4C3C2=O)c1 (configuration not stated) ?
Reply text: 0.0

Inquiry: What would you report for N#Cc1c(N)nc(-c2ccc(Cl)cc2)c2c1-c1ccccc1S(=O)(=O)CC2 ?
Reply text: 0.0

Inquiry: What would you report for N#Cc1cccc(C2C(=O)c3ccc(C(=O)c4ccc5c(c4)C(=O)N(c4ccc(Oc6ccc(N7C(=O)c8ccc(C(=O)c9ccc%10c(c9)C(=O)N(c9cccc(C#N)c9)C%10=O)cc8C7=O)cc6)cc4)C5=O)cc3C2=O)c1 (configuration not stated) ?
Reply text: 0.0

Inquiry: What would you report for CCOCc1cc(=O)c2c(OC)cc3c(c2o1)CCC(C)(C)O3 ?
Reply text: 0.0

Inquiry: What would you report for CSC1=C(c2ccc(Cl)cc2)SC(N2CCCCC2)N1c1ccc([N+](=O)[O-])cc1 (configuration not stated) ?
Reply text: 0.0

Inquiry: What would you report for C[Si](C)(C)/N=C1\N2C(=NC1(C(F)(F)F)C(F)(F)F)Sc1ccccc12 ?
Reply text: 0.0

Inquiry: What would you report for O=C(Nc1ccc2nc(O)n[n+]([O-])c2c1)C(F)(F)F ?
Reply text: 0.0

Inquiry: What would you report for CC(C)(C=O)CC(C#N)/C(=N\NC(N)=O)C(=O)Nc1ccccc1C(N)=O (configuration not stated) ?
Reply text: 0.0

Inquiry: What would you report for CCCCNC(=S)Nn1c(-c2ccccc2)nc2ccccc2c1=O ?
Reply text: 0.0

Inquiry: What would you report for CCCCCOC(=O)C(=O)Nc1[nH]nnc1C(N)=O ?
Reply text: 0.0

The origin of these recorded values is ChEMBL document CHEMBL1201862.
